- target-or-test-system: Human HDAC9 (Homo sapiens, UniProt Q9UKV0)
- Construct: amino acids 604-1066 with C-terminal His tag; His (C); host or cells: baculovirus expression system
- Sequence (Q9UKV0 604-1066 isoform Q9UKV0-5): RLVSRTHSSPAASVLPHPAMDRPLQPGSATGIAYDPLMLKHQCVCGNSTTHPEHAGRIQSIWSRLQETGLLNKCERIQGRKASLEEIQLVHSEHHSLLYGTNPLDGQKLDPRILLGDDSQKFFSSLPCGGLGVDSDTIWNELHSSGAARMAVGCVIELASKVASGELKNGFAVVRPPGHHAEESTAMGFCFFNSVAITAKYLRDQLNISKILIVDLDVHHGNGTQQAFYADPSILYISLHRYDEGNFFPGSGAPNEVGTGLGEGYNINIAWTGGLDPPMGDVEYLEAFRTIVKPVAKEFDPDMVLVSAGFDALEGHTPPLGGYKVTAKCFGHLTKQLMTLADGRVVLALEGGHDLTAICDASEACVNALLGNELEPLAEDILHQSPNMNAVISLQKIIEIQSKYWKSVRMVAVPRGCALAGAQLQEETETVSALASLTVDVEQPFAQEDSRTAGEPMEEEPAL
- protocol-details: HDAC9 biochemical assay, class IIa-specific substrate
- assay-conditions: read-out: HDAC Isoform IC50 (nM) 9
- Experimental: Activity against all zinc-dependent HDACs 1 to 11 was assessed by using an acetylated AMC-labeled peptide substrate. The substrate RHKK(Ac)AMC was used for HDAC1, HDAC2, HDAC3, HDAC6 and HDAC10; the substrate used for HDAC8 was RHK(Ac)K(Ac)AMC. Activity against the class IIa HDACs (HDAC4, 5, 7, 9) and HDAC11 was determined using a class IIa-specific substrate, BOC-Lys(trifluoroacetyl)-AMC (“Trifluoroacetyl Lysine”; see Lahm et al, 2007, PNAS, 104, 17335-17340). […]
property-measured: IC50

FC(F)(F)c1nc(-c2ccc(CN(c3cnccn3)c3nccnn3)s2)no1 | ≤ 10000 nM
CN(C)C(=O)c1ccc(N(Cc2ccc(-c3noc(C(F)(F)F)n3)s2)c2cnccn2)nc1 | ≤ 10000 nM

--- query ---
Problem: Quick check: IC50 of `CS(=O)(=O)c1cc(N(Cc2ccc(-c3noc(C(F)(F)F)n3)s2)c2cnccn2)ncn1` ?
Result: ≤ 10000 nM

---

- target-or-test-system: Recombinant human HDAC6 (Homo sapiens)
- Construct: full length, MW=159 kDa; GST (N); host or cells: Sf9 insect cells (baculovirus)
- Sequence (Q9UBN7 whole entry): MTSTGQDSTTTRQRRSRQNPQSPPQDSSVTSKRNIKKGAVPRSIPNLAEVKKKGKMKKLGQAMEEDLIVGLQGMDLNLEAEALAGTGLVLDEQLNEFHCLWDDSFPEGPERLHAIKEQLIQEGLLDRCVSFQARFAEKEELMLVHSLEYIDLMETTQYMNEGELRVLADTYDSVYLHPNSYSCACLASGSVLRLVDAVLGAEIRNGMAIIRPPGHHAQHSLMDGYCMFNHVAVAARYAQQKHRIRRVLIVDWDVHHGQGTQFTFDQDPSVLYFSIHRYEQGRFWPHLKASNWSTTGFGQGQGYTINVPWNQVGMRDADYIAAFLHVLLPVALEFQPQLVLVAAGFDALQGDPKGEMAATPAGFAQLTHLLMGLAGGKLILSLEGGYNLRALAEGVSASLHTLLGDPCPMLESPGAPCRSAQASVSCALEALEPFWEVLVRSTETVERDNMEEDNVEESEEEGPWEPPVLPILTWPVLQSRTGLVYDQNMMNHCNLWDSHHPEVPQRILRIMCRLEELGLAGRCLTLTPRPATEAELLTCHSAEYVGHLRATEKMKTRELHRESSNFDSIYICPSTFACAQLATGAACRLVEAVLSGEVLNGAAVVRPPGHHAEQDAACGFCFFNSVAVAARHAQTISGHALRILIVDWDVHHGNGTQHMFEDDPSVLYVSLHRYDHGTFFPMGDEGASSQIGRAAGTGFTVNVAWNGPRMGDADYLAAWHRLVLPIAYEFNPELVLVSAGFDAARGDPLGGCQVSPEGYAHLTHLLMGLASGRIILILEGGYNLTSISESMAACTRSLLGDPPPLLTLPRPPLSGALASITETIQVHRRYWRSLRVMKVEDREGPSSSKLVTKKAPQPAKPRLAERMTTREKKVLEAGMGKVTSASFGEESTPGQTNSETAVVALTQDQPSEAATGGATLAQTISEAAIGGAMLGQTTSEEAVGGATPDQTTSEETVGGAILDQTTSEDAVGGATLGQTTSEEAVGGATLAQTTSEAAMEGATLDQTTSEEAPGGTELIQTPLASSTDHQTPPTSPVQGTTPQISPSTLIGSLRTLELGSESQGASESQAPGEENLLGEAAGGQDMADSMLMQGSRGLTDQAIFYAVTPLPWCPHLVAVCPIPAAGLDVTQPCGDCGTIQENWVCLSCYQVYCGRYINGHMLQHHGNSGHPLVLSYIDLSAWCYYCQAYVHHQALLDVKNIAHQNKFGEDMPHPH
- protocol-details: HDAC6 biochemical assay, AMC-labeled peptide substrate
- assay-conditions: HDAC6; read-out: HDAC Isoform IC50 (nM) 6
property-measured: IC50

Problem: Entry under review: `FC(F)c1cnnc(N(Cc2ccc(-c3noc(C(F)(F)F)n3)s2)c2cnccn2)c1` . Reported IC50?
Result: ≤ 500 nM

---

- target-or-test-system: Human HDAC4 (Homo sapiens)
- Construct: amino acids 627-1085 with N-terminal GST tag; GST (N); host or cells: baculovirus expression system
- Sequence (P56524 627-1084 limits assumed): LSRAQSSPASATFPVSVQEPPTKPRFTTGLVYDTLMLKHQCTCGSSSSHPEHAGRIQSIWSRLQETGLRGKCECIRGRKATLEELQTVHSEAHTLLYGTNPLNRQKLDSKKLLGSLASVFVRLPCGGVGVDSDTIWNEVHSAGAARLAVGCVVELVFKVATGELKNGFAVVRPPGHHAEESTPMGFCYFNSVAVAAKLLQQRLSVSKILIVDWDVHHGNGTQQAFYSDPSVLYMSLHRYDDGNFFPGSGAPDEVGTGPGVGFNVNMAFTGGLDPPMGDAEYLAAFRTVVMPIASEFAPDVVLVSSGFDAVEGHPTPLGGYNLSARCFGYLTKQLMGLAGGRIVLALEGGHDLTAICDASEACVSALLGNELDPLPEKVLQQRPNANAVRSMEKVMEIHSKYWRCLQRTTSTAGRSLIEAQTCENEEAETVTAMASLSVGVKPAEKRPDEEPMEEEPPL
- protocol-details: HDAC4 biochemical assay, class IIa-specific substrate
- assay-conditions: read-out: HDAC Isoform IC50 (nM) 4
property-measured: IC50

FC(F)(F)c1nc(-c2ccc(CN(c3cnccn3)c3cncnc3C(F)(F)F)s2)no1 | ≤ 1000 nM

Problem: Tell me reported IC50 for `Cc1cc(N(Cc2ccc(-c3noc(C(F)(F)F)n3)s2)c2cnccn2)ncn1` , tested with Human HDAC4 (Homo sapiens).
Result: ≤ 10000 nM

Problem: Try this molecule next: `Cc1nc(N2CCCC2)cc(N(Cc2ccc(-c3noc(C(F)(F)F)n3)s2)c2cnccn2)n1`
Result: ≤ 10000 nM

---

- target-or-test-system: Human HDAC9 (Homo sapiens, UniProt Q9UKV0)
- Construct: amino acids 604-1066 with C-terminal His tag; His (C); host or cells: baculovirus expression system
- protocol-details: HDAC9 biochemical assay, class IIa-specific substrate
- assay-conditions: read-out: HDAC Isoform IC50 (nM) 9
property-measured: IC50

CN1CCN(c2ccc(N(Cc3ccc(-c4noc(C(F)(F)F)n4)s3)c3cnccn3)nn2)CC1 [Example DK] | ≤ 10000 nM
COc1cncnc1N(Cc1ccc(-c2noc(C(F)(F)F)n2)s1)c1cnccn1 [Example CP] | ≤ 10000 nM

Problem: For FC(F)(F)c1nc(-c2ccc(CN(c3ccc(C4CC4)cn3)c3cnccn3)s2)no1 [Example AA] , what is its reported IC50?
Result: ≤ 10000 nM
